Biological target: Recombinant human integrin αVβ5 (Homo sapiens, UniProt P06756+P18084)
Sequence (P06756 31-992 limits assumed): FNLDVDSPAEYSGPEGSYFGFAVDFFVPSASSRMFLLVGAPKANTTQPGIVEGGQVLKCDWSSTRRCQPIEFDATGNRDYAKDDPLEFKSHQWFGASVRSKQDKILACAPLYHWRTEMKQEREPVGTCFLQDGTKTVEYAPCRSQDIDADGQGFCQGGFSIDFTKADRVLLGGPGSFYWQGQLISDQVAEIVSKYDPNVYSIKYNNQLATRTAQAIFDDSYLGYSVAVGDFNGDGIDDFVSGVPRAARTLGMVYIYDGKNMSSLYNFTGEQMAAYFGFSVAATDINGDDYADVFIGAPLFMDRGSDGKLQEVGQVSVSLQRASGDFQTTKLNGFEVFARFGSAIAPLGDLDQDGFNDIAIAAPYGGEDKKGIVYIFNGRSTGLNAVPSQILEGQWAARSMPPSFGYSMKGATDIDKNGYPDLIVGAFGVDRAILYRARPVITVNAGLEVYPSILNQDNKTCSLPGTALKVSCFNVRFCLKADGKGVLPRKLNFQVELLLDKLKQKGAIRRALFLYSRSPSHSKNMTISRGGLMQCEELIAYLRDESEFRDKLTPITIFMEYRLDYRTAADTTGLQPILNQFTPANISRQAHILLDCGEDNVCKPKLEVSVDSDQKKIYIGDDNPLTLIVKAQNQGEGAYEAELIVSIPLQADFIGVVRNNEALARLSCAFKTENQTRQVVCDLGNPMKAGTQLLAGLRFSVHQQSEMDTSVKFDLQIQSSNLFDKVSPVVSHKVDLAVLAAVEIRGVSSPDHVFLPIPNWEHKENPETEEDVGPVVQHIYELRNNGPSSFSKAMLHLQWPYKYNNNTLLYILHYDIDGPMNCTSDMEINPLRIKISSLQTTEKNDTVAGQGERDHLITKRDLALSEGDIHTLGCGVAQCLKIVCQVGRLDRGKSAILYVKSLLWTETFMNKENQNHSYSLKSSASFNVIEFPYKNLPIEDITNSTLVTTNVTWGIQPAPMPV
Sequence (P18084 24-719 limits assumed): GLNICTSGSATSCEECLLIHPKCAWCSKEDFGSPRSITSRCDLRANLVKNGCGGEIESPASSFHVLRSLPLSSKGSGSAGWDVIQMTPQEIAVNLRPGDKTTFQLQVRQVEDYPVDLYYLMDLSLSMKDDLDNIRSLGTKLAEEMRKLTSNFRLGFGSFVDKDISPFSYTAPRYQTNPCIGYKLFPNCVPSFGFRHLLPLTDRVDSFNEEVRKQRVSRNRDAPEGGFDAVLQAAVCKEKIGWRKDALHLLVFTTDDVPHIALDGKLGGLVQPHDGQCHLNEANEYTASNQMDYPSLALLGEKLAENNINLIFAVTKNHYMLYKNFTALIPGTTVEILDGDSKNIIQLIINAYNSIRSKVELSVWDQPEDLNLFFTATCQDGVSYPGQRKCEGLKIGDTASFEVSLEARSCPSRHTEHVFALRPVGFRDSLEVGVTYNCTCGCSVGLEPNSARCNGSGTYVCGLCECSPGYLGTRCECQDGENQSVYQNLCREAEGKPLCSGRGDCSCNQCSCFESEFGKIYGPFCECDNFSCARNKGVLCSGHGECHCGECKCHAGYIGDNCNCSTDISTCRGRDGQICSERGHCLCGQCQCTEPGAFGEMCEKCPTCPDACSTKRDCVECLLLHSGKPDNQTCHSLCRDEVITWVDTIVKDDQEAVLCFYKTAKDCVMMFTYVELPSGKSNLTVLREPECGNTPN
Experiment: Solid Phase Receptor Assay (SPRA) for αVβ5 function
Details: plate-bound human vitronectin
Exercise: for every item that follows, state its recorded pIC50.
Lab note — pIC50 values are minus log10 of concentrations in M.

# return recorded pIC50 for entry CC(C)c1cc(C#N)cc(C(CC(=O)O)Cc2cc(OCCc3ccc4c(n3)NCCC4)n(C)n2)c1 (stereo not shown)
9.52

Give the reported pIC50 for this compound. COCC1(c2ccc(OC)c(C(CC(=O)O)Cc3cc(OCCc4ccc5c(n4)NCCC5)n(C)n3)c2)CCOCC1 (stereo not shown)
5.92

Supply recorded pIC50 for COc1c(C(C)(C)C)cc(C(CC(=O)O)Cc2csc(CCCc3ccc4c(n3)NCCC4)n2)cc1C(C)(C)C (stereo not shown) here.
6.10

Indicate the recorded pIC50 value for this compound: COc1c(C(C)(C)C)cc(C(CC(=O)O)Cc2cc(OCCc3ccc4c(n3)NCCC4)n(C)n2)cc1C(C)(C)C (stereo not shown)
7.08
